Field: Ki. Provide a value for each of the compounds that follow.
# target_of_assay: Carbonic anhydrase 2 (Homo sapiens, UniProt P00918)
# protocol_notes: Inhibition of human recombinant carbonic anhydrase 2 preincubated for 15 mins at room temperature/6 hrs at 4 deg C by stopped-flow CO2 hydration assay

Solved entries (count: 5):
{"compound": "O=C(/C=C/c1ccc(O)c(O)c1/C=C/c1ccc(O)c(O)c1)O[C@H](Cc1ccc(O)c(O)c1)C(=O)O", "Ki": "9.59 µM"}
{"compound": "COc1cc(-c2oc3cc(O)cc(O)c3c(=O)c2O)ccc1O", "Ki": "> 10 µM"}
{"compound": "COc1ccc(-c2coc3cc(O)cc(O)c3c2=O)cc1", "Ki": "> 10 µM"}
{"compound": "CC(=O)O[C@@H]1[C@@H](OC(=O)/C=C/c2ccc(O)cc2)[C@H](Oc2c(-c3ccc(O)cc3)oc3cc(O)cc(O)c3c2=O)O[C@H](COC(=O)/C=C/c2ccc(O)cc2)[C@H]1OC(C)=O", "Ki": "6.86 µM"}
{"compound": "O=c1cc(-c2ccccc2)oc2cc(O)cc(O)c12", "Ki": "> 10 µM"}

List the reported Ki of each compound below.
1. O=c1c(O)c(-c2ccccc2)oc2cc(O)cc(O)c12
2. O=c1c(-c2ccc(O)cc2)coc2cc(O)ccc12
3. O=C(/C=C/c1ccc(O)c2c1[C@H](C(=O)O)[C@@H](c1ccc(O)c(O)c1)O2)O[C@H](Cc1ccc(O)c(O)c1)C(=O)O
4. O=C(/C=C/c1ccc(O)cc1)OC[C@H]1O[C@@H](Oc2c(-c3ccc(O)cc3)oc3cc(O)cc(O)c3c2=O)[C@H](OC(=O)/C=C/c2ccc(O)cc2)[C@@H](O)[C@@H]1O

Result:
1: > 10 µM; 2: > 10 µM; 3: > 10 µM; 4: 8.79 µM

Please supply Ki for each of the following items, keeping them in order.
1. O=c1c(-c2ccc(O)cc2)coc2c([C@@H]3O[C@H](CO)[C@@H](O)[C@H](O)[C@H]3O)c(O)ccc12
2. C[C@@H]1O[C@@H](Oc2c(-c3ccc(O)c(O)c3)oc3cc(O)cc(O)c3c2=O)[C@H](O)[C@H](O)[C@H]1O [QUERCETIN-3-O-RHAMNOSIDE]
3. O=c1c(O[C@@H]2O[C@H](CO)[C@@H](O)[C@H](O)[C@H]2O)c(-c2ccc(O)cc2)oc2cc(O)cc(O)c12

Result:
1: > 10 µM; 2: 6.37 µM; 3: 0.168 µM

For every item in the list below, what is its measured Ki?
1. O=C1C[C@@H](c2ccc(O)cc2)Oc2cc(O)cc(O)c21
2. COc1ccc([C@@H]2CC(=O)c3c(O)cc(O)cc3O2)cc1O
3. O=c1c(O)c(-c2ccc(O)cc2)oc2cc(O)cc(O)c12
4. O=c1c(O[C@@H]2O[C@H](CO)[C@@H](O)[C@H](O)[C@H]2O)c(-c2ccc(O)c(O)c2)oc2cc(O)cc(O)c12
5. O=C(/C=C/c1ccc(O)cc1)OC[C@H]1O[C@@H](Oc2c(-c3ccc(O)cc3)oc3cc(O)cc(O)c3c2=O)[C@H](O)[C@@H](O)[C@@H]1O [TILIROSIDE]
6. O=c1cc(-c2ccc(O)c(O)c2)oc2cc(O)cc(O)c12
7. O=C1C[C@@H](c2ccc(O)c(O)c2)Oc2cc(O)cc(O)c21

Result:
1. > 10 µM
2. > 10 µM
3. 9.53 µM
4. 6.21 µM
5. > 10 µM
6. 3.69 µM
7. > 10 µM

* * *

# target_of_assay: Carbonic anhydrase 4 (Homo sapiens, UniProt P22748)
# Sequence (P22748 whole entry): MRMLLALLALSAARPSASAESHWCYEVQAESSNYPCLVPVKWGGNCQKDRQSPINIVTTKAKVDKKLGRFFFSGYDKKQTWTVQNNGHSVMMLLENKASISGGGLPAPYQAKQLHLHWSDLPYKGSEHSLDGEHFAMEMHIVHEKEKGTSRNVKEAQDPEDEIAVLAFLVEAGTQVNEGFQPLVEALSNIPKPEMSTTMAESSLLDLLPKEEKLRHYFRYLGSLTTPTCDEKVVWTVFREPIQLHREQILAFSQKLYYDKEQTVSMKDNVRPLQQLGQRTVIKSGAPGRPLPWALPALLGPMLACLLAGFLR
# protocol_notes: Inhibition of human recombinant carbonic anhydrase 4 preincubated for 15 mins at room temperature/6 hrs at 4 deg C by stopped-flow CO2 hydration assay
The threshold is 200 nM. Values of Ki beneath it are tagged met; values meeting or exceeding it are tagged not met.

Example entries and their recorded answers appear below.
{"molecule_smiles": "O=c1c(O)c(-c2ccccc2)oc2cc(O)cc(O)c12", "target_of_assay": "Carbonic anhydrase 4 (Homo sapiens, UniProt P22748)", "assigned_category": "not met"}
{"molecule_smiles": "O=C1C[C@@H](c2ccc(O)c(O)c2)Oc2cc(O)cc(O)c21", "target_of_assay": "Carbonic anhydrase 4 (Homo sapiens, UniProt P22748)", "assigned_category": "met"}
{"molecule_smiles": "O=c1c(O[C@@H]2O[C@H](CO)[C@@H](O)[C@H](O)[C@H]2O)c(-c2ccc(O)c(O)c2)oc2cc(O)cc(O)c12", "target_of_assay": "Carbonic anhydrase 4 (Homo sapiens, UniProt P22748)", "assigned_category": "met"}
{"molecule_smiles": "COc1ccc(-c2coc3cc(O)cc(O)c3c2=O)cc1", "target_of_assay": "Carbonic anhydrase 4 (Homo sapiens, UniProt P22748)", "assigned_category": "not met"}
{"molecule_smiles": "O=C(/C=C/c1ccc(O)c2c1[C@H](C(=O)O)[C@@H](c1ccc(O)c(O)c1)O2)O[C@H](Cc1ccc(O)c(O)c1)C(=O)O", "target_of_assay": "Carbonic anhydrase 4 (Homo sapiens, UniProt P22748)", "assigned_category": "met"}

Query: Please determine if O=C1C[C@@H](c2ccc(O)cc2)Oc2cc(O)cc(O)c21 is below 200 nM in terms of Ki.
Result: met

Query: Dear colleague, could you confirm whether Ki of COc1cc(-c2oc3cc(O)cc(O)c3c(=O)c2O)ccc1O falls below 200 nM? Thanks.
Result: not met

Query: Threshold test, Ki < 200 nM: O=c1c(O[C@@H]2O[C@H](CO)[C@@H](O)[C@H](O)[C@H]2O)c(-c2ccc(O)cc2)oc2cc(O)cc(O)c12
Result: not met

* * *

Please respond with reported pKi for every item in the list.
# target_of_assay: Carbonic anhydrase 1 (Homo sapiens, UniProt P00915)
# Sequence (P00915 whole entry): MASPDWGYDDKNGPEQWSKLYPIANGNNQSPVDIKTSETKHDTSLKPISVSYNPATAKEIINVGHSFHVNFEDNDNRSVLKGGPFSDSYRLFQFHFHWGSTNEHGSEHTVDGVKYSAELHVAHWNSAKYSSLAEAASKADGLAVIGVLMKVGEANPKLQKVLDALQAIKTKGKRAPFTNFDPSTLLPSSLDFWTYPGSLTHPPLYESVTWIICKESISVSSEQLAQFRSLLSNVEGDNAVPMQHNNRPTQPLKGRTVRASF
# protocol_notes: Inhibition of human recombinant carbonic anhydrase 1
pKi: −log10 of the molar value.

# per-item lookup of pKi; items listed below
1. COc1cc(-c2oc3cc(O)cc(O)c3c(=O)c2O)ccc1O
2. O=c1c(O[C@@H]2O[C@H](CO)[C@@H](O)[C@H](O)[C@H]2O)c(-c2ccc(O)c(O)c2)oc2cc(O)cc(O)c12

Result:
< 5.00
< 5.00

* * *

# target_of_assay: Carbonic anhydrase 12 (Homo sapiens, UniProt O43570)
# Sequence (O43570 whole entry): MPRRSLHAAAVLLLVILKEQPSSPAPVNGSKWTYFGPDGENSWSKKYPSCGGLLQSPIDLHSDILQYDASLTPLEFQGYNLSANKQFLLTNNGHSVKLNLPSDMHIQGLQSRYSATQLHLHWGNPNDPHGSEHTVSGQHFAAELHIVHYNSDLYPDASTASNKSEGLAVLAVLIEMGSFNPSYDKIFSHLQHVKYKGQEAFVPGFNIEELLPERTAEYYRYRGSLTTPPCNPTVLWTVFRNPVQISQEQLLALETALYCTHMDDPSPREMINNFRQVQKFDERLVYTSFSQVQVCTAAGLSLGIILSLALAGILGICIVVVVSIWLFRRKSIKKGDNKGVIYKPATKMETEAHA
# protocol_notes: Inhibition of human recombinant carbonic anhydrase 12 preincubated for 15 mins at room temperature/6 hrs at 4 deg C by stopped-flow CO2 hydration assay
measure_name: pKi
One number for each entry, as −log10 of the molar value.

Known results for molecules:
{"molecule": "CC(=O)O[C@@H]1[C@@H](OC(=O)/C=C/c2ccc(O)cc2)[C@H](Oc2c(-c3ccc(O)cc3)oc3cc(O)cc(O)c3c2=O)O[C@H](COC(=O)/C=C/c2ccc(O)cc2)[C@H]1OC(C)=O", "pKi": 6.40}
{"molecule": "O=C(/C=C/c1ccc(O)cc1)OC[C@H]1O[C@@H](Oc2c(-c3ccc(O)cc3)oc3cc(O)cc(O)c3c2=O)[C@H](O)[C@@H](O)[C@@H]1O [TILIROSIDE]", "pKi": 6.87}
{"molecule": "O=c1cc(-c2ccc(O)c(O)c2)oc2cc(O)cc(O)c12 [LUTEOLIN]", "pKi": 7.22}

I would be grateful if you could provide pKi for each of the following entries.
1. O=c1c(O[C@@H]2O[C@H](CO)[C@@H](O)[C@H](O)[C@H]2O)c(-c2ccc(O)c(O)c2)oc2cc(O)cc(O)c12 [ISOQUERCETIN]
2. O=C(/C=C/c1ccc(O)cc1)OC[C@H]1O[C@@H](Oc2c(-c3ccc(O)cc3)oc3cc(O)cc(O)c3c2=O)[C@H](OC(=O)/C=C/c2ccc(O)cc2)[C@@H](O)[C@@H]1O

Result:
1: 7.28; 2: 6.39

// each molecule listed below needs its pKi
1. COc1ccc([C@@H]2CC(=O)c3c(O)cc(O)cc3O2)cc1O [HESPERETIN]
2. COc1ccc(-c2coc3cc(O)cc(O)c3c2=O)cc1 [BIOCHANIN]

Result:
1. 6.34
2. 7.28

# map each molecule to its pKi
1. O=c1cc(-c2ccccc2)oc2cc(O)cc(O)c12 [CHRYSIN]
2. O=c1c(-c2ccc(O)cc2)coc2cc(O)ccc12 [DAIDZEIN]

Result:
1. 7.46
2. 7.25

Batch request: pKi for each of the following molecules.
1. O=c1c(O[C@@H]2O[C@H](CO)[C@@H](O)[C@H](O)[C@H]2O)c(-c2ccc(O)cc2)oc2cc(O)cc(O)c12 [ASTRAGALIN]
2. O=C1C[C@@H](c2ccc(O)c(O)c2)Oc2cc(O)cc(O)c21 [ERIODICTYOL]
3. COc1cc(-c2oc3cc(O)cc(O)c3c(=O)c2O)ccc1O [ISORHAMNETIN]
4. O=C1C[C@@H](c2ccc(O)cc2)Oc2cc(O)cc(O)c21 [NARINGENIN]

Result:
1: 8.31; 2: 7.51; 3: 7.26; 4: 7.35
